targetOrTestSystem: AChE (Homo sapiens, UniProt P22303)
Sequence (P22303 32-614): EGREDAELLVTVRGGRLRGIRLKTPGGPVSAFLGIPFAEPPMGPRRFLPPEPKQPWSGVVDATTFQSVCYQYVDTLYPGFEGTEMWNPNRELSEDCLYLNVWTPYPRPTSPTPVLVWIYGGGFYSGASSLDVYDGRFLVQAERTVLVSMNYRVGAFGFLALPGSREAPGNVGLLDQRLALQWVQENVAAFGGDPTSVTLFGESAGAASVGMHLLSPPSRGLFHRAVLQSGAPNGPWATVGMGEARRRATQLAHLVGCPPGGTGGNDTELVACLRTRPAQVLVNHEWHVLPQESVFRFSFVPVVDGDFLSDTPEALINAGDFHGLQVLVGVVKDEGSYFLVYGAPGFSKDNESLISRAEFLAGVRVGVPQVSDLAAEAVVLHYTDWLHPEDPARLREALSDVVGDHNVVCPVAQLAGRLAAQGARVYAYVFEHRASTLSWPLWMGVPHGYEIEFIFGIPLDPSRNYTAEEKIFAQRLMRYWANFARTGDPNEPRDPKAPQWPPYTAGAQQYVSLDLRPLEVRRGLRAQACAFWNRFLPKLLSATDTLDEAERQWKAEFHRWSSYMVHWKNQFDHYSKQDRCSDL
assayName: Anticholinesterase activity, modified colorimetric Ellman method
Type: biochemical
conditionContext: read-out: AChE % inhibition
Can you tell me inhibition at 1000 µM for the items I'm about to list?
Answer as a quantity: numeral, then unit.

# COc1ccc(C(=O)C=Cc2ccc(NC(=O)CN3CCN(C(C)C)CC3)cc2)cc1OC with AChE (Homo sapiens, UniProt P22303): inhibition at 1000 µM is 79.2%

# COc1ccc(C(=O)C=Cc2ccc(NC(=O)CN3CCN(CCCN(C)C)CC3)cc2)cc1OC with AChE (Homo sapiens, UniProt P22303): inhibition at 1000 µM is 97.4%

# COc1ccc(C(=O)C=Cc2ccc(NC(=O)CN3CCN(C=O)CC3)cc2)cc1OC with AChE (Homo sapiens, UniProt P22303): inhibition at 1000 µM is 96.8%

# COCCN1CCN(CC(=O)Nc2ccc(C=CC(=O)c3ccc(OC)c(OC)c3)cc2)CC1 with AChE (Homo sapiens, UniProt P22303): inhibition at 1000 µM is 90.6%
